Provide the recorded melting point for the entries that follow.

Solved entries (count: 5):
Nc1nc(NC2CC2)c2ncn(/C=C3/CC3(CO)CO)c2n1 : 195 to 196 °C
Nc1nc(N)c2ncn(/C=C3/CC3(CO)CO)c2n1 : 249 to 250 °C
COc1nc(N)nc2c1ncn2/C=C1\CC1(CO)CO : 179 to 180 °C
Nc1ccn(/C=C2\CC2(CO)CO)c(=O)n1 : 249 to 251 °C
COc1nc(N)nc2c1ncn2/C=C1/CC1(CO)CO : 188 to 189 °C

# per-item lookup of melting point; items listed below
1. Nc1ccn(/C=C2/CC2(CO)CO)c(=O)n1
2. Nc1nc(N)c2ncn(/C=C3\CC3(CO)CO)c2n1

A)
250 to 253 °C
219 to 220 °C

Looking up Nc1nc(NC2CC2)c2ncn(/C=C3\CC3(CO)CO)c2n1 , I see its melting point listed as 164 to 165 °C
